Test system: SK-LMS-1
Assay: relative viability vs DMSO control (72 h) (fraction); higher = more viable cells
Settings: 1.111 µM
Value Kind: relative viability

{"columns": ["Smiles Str", "Obs Value"],
 "data": [
  ["CC(C)Oc1ccc(-c2nn([C@@H](C)c3oc4ccc(F)cc4c(=O)c3-c3cccc(F)c3)c3ncnc(N)c23)cc1F", 1.02],
  ["Cn1cc(C2=C(c3cn(C4CCN(Cc5ccccn5)CC4)c4ccccc34)C(=O)NC2=O)c2ccccc21", 0.976],
  ["CC#CC(=O)N1CCC[C@H]1c1nc(-c2ccc(C(=O)Nc3ccccn3)cc2)c2c(N)nccn12", 1.06],
  ["CC1(C)CC=C(c2nc(C3CC(C)(C)OC(C)(C)C3)ccc2NC(=O)c2nc(C#N)c[nH]2)CC1", 0.929]
]}

###

System: SYO-1
Experiment: relative viability vs DMSO control (72 h) (fraction); higher = more viable cells
Conditions: 10 µM
Could you please classify the records by relative viability using these ranges: 0: < 0.3; 1: ≥ 0.3 and < 0.9; 2: ≥ 0.9

{"columns": ["Molecule", "Qualitative Label"],
 "data": [
  ["CC1(C)CC=C(c2nc(C3CC(C)(C)OC(C)(C)C3)ccc2NC(=O)c2nc(C#N)c[nH]2)CC1", 2],
  ["CN1CCN(c2ccc(C(=O)Nc3n[nH]c4ccc(Cc5cc(F)cc(F)c5)cc34)c(NC3CCOCC3)c2)CC1", 0],
  ["Cc1ccc(Nc2nccc(N(C)c3ccc4c(C)n(C)nc4c3)n2)cc1S(N)(=O)=O", 1],
  ["COC(=O)N[C@@H](C)CNc1nccc(-c2cn(C(C)C)nc2-c2cc(Cl)cc(NS(C)(=O)=O)c2F)n1", 1],
  ["O=C(Nc1ccc(OC(F)(F)Cl)cc1)c1cnc(N2CC[C@@H](O)C2)c(-c2cc[nH]n2)c1", 1],
  ["Cn1cc(C2=C(c3cn(C4CCN(Cc5ccccn5)CC4)c4ccccc34)C(=O)NC2=O)c2ccccc21", 2],
  ["Cc1cccc(-c2nn3c(c2-c2ccnc4ccc(C(N)=O)cc24)CCC3)n1", 1],
  ["CCN(CC)CCNC(=O)c1c(C)[nH]c(/C=C2\\C(=O)Nc3ccc(F)cc32)c1C", 0],
  ["Cc1cc2cc(Oc3ccnc(Nc4cccc(CS(=O)(=O)NCCN(C)C)c4)n3)ccc2[nH]1", 0],
  ["CC[C@@H]1CN(C(=O)NCC(F)(F)F)C[C@@H]1c1cnc2cnc3[nH]ccc3n12", 1],
  ["N#CCNC(=O)c1ccc(-c2ccnc(Nc3ccc(N4CCOCC4)cc3)n2)cc1", 0],
  ["COc1cc(CCc2cc(NC(=O)c3ccc(N4CC(C)NC(C)C4)cc3)n[nH]2)cc(OC)c1 (stereo not given)", 0]
]}

###

Tested on: KHOS-NP
Assay: relative viability vs DMSO control (72 h) (fraction); higher = more viable cells
Settings: 0.3704 µM

{"columns": ["Compound", "relative viability"],
 "data": [
  ["CCN(CC)CCNC(=O)c1c(C)[nH]c(/C=C2\\C(=O)Nc3ccc(F)cc32)c1C", 1.06],
  ["COCCNc1cc(NC(=O)N2CCCc3cc(CN4CCN(C)CC4=O)c(C=O)nc32)ncc1C#N", 1.05],
  ["O=C1NC(=O)[C@@H](c2cn3c4c(cccc24)CCC3)[C@@H]1c1c[nH]c2ccccc12 [Tivantinib]", 1.05],
  ["COc1cc(Nc2ncc(F)c(Nc3ccc4c(n3)N(COP(=O)(O)O)C(=O)C(C)(C)O4)n2)cc(OC)c1OC", 1.05],
  ["CCc1cnn2c(NCc3ccc[n+]([O-])c3)cc(N3CCCC[C@H]3CCO)nc12", 0.163],
  ["Cn1ncnc1[C@H]1c2n[nH]c(=O)c3cc(F)cc(c23)N[C@@H]1c1ccc(F)cc1", 0.968]
]}

###

relative viability values for the compounds below.
System: SK-ES-1
Test: relative viability vs DMSO control (72 h) (fraction); higher = more viable cells
Conditions: 0.04115 µM

{"columns": ["Compound", "Subject Of Test", "relative viability"],
 "data": [
  ["CCN(CC)CCNC(=O)c1c(C)[nH]c(/C=C2\\C(=O)Nc3ccc(F)cc32)c1C", "SK-ES-1", 0.97],
  ["Cc1cc2cc(Oc3ccnc(Nc4cccc(CS(=O)(=O)NCCN(C)C)c4)n3)ccc2[nH]1", "SK-ES-1", 1.05],
  ["O=C(Nc1nc2cccc(-c3ccc(CN4CCS(=O)(=O)CC4)cc3)n2n1)C1CC1", "SK-ES-1", 1.07],
  ["COCCNc1cc(NC(=O)N2CCCc3cc(CN4CCN(C)CC4=O)c(C=O)nc32)ncc1C#N", "SK-ES-1", 0.973],
  ["CNC(=O)c1nnc(NC(=O)C2CC2)cc1Nc1cccc(-c2ncn(C)n2)c1OC", "SK-ES-1", 1.04],
  ["Cn1cc(C2=C(c3cn(C4CCN(Cc5ccccn5)CC4)c4ccccc34)C(=O)NC2=O)c2ccccc21", "SK-ES-1", 1.08],
  ["N#CC1(c2ccc(NC(=O)c3cccnc3NCc3ccncc3)cc2)CCCC1", "SK-ES-1", 0.991],
  ["Clc1ccc(Nc2nnc(Cc3ccncc3)c3ccccc23)cc1", "SK-ES-1", 1.01],
  ["N#CCNC(=O)c1ccc(-c2ccnc(Nc3ccc(N4CCOCC4)cc3)n2)cc1", "SK-ES-1", 0.953],
  ["COC(=O)[C@@]1(O)C[C@H]2O[C@]1(C)n1c3ccccc3c3c4c(c5c6ccccc6n2c5c31)C(=O)NC4 [K-252a]", "SK-ES-1", 0.508]
]}

###

relative viability values for the compounds below.
Tested on: SW872
Test: relative viability vs DMSO control (72 h) (fraction); higher = more viable cells
Conditions: 3.333 µM

{"columns": ["Compound", "relative viability"],
 "data": [
  ["CC(C)(O)CNc1nc(Nc2ccnc(C(F)(F)F)c2)nc(-c2cccc(C(F)(F)F)n2)n1", 1.07],
  ["CC(C)NC[C@@H](C(=O)N1CCN(c2ncnc3c2[C@H](C)C[C@H]3O)CC1)c1ccc(Cl)cc1", 0.491],
  ["CCN1C(=O)N(c2c(F)c(OC)cc(OC)c2F)Cc2cnc3[nH]c(CN4CCOCC4)cc3c21", 0.739],
  ["C[C@]12O[C@H](C[C@]1(O)CO)n1c3ccccc3c3c4c(c5c6ccccc6n2c5c31)CNC4=O", 0.267],
  ["COc1cc(Nc2ncc(F)c(Nc3ccc4c(n3)N(COP(=O)(O)O)C(=O)C(C)(C)O4)n2)cc(OC)c1OC", 0.267],
  ["CC[C@@H]1CN(C(=O)NCC(F)(F)F)C[C@@H]1c1cnc2cnc3[nH]ccc3n12", 0.97],
  ["O=S(=O)(c1cccc2cnccc12)N1CCCNCC1", 1],
  ["COC(=O)[C@@]1(O)C[C@H]2O[C@]1(C)n1c3ccccc3c3c4c(c5c6ccccc6n2c5c31)C(=O)NC4 [K-252a]", 0.0892]
]}

###

Test system: HT1080
Assay: relative viability vs DMSO control (72 h) (fraction); higher = more viable cells
Settings: 0.1235 µM
relative viability values for the compounds below.
Value Kind: relative viability

{"columns": ["Smiles Str", "Value Kind", "Obs Value"],
 "data": [
  ["CN1CCN(c2ccc(C(=O)Nc3n[nH]c4ccc(Cc5cc(F)cc(F)c5)cc34)c(NC3CCOCC3)c2)CC1", "relative viability", 1.08],
  ["COc1cc(OC)c(/C=C/S(=O)(=O)Cc2ccc(OC)c(NCC(=O)O)c2)c(OC)c1", "relative viability", 1.06],
  ["Cc1ccc(Nc2nccc(N(C)c3ccc4c(C)n(C)nc4c3)n2)cc1S(N)(=O)=O", "relative viability", 1.03],
  ["Cn1ncnc1[C@H]1c2n[nH]c(=O)c3cc(F)cc(c23)N[C@@H]1c1ccc(F)cc1", "relative viability", 0.85]
]}

###

relative viability values for the compounds below.
System: SW872
Experiment: relative viability vs DMSO control (72 h) (fraction); higher = more viable cells
Settings: 0.3704 µM

{"columns": ["Compound", "relative viability"],
 "data": [
  ["CNC(=O)c1nnc(NC(=O)C2CC2)cc1Nc1cccc(-c2ncn(C)n2)c1OC", 1.02],
  ["COc1cc(Nc2ncc(F)c(Nc3ccc4c(n3)N(COP(=O)(O)O)C(=O)C(C)(C)O4)n2)cc(OC)c1OC [Fostamatinib]", 0.795],
  ["COC(=O)[C@@]1(O)C[C@H]2O[C@]1(C)n1c3ccccc3c3c4c(c5c6ccccc6n2c5c31)C(=O)NC4 [K-252a]", 0.589],
  ["C[C@]12O[C@H](C[C@]1(O)CO)n1c3ccccc3c3c4c(c5c6ccccc6n2c5c31)CNC4=O [Lestaurtinib]", 0.507],
  ["CC[C@@H]1CN(C(=O)NCC(F)(F)F)C[C@@H]1c1cnc2cnc3[nH]ccc3n12 [Upadacitinib]", 0.963]
]}

The origin of these recorded values is the supplement of paper PMC10883282.
